# test.system: Prostaglandin G/H synthase 1 (Homo sapiens, UniProt P23219)
# Sequence (P23219 whole entry): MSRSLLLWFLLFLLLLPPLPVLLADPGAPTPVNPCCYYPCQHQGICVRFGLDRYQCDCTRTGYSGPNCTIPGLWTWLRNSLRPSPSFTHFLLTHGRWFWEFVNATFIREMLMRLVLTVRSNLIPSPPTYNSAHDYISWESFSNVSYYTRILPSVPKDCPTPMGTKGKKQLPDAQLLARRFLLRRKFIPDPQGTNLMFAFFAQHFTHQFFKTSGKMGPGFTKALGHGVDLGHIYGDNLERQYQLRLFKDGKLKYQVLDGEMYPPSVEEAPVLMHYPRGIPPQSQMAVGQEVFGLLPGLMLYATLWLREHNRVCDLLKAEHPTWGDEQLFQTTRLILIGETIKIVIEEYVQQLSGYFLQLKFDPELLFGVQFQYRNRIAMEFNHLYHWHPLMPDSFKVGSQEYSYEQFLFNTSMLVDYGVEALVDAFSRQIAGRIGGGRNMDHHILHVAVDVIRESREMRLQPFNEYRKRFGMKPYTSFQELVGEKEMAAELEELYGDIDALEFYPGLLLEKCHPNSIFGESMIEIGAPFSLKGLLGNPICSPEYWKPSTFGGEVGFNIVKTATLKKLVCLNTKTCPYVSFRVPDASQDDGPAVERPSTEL
# procedure.details: Inhibition of COX1 at 100 uM
reported.endpoint: inhibition (%)

[1] Cc1c(CC(=O)O)c2ccccc2n1C(=O)c1ccc(Cl)cc1
[2] CC(=O)Oc1ccccc1C(=O)O
q: Identify the entry with the smaller inhibition: 1 or 2 . Your answer should be the label attached to the chosen record.
a: 2

###

# test.system: Prostaglandin G/H synthase 1 (Homo sapiens)
reported.endpoint: pIC50
Value format note: pIC50 is -log10 of concentration (mol/L); just state the number.

q: Dear colleague, I am looking for the recorded pIC50 of the following molecule: Cc1c(CC(=O)O)c2ccccc2n1C(=O)c1ccc(Cl)cc1
a: 8.00
